- tgt: HLA-DR (DRA1*01:01 / DRB1*07:01), soluble knob-into-hole Fc heterodimer (human)
- measurement_notes: ELISA
readout_kind: pKd
One number for each entry, as −log10 of the molar value.

Record excerpt, results attached:
- binder: "GNYNYLYRLFRKSNL [SARS-CoV-2 RBD peptide RBD447-461, wildtype strain]"
  pKd: 6.79
- binder: "VVLSFELLHAPATVC [SARS-CoV-2 RBD peptide RBD511-525]"
  pKd: 6.58
- binder: "TESIVRFPNITNLCP [SARS-CoV-2 RBD peptide RBD323-337]"
  pKd: 6.36

Next, consider the following binder.
response.value for VEGFNCYFPLQSYGF [SARS-CoV-2 RBD peptide RBD483-497] (field: pKd) = 6.76
